Target: T1, TNFR1 (Homo sapiens, UniProt P19438)
T1 chain: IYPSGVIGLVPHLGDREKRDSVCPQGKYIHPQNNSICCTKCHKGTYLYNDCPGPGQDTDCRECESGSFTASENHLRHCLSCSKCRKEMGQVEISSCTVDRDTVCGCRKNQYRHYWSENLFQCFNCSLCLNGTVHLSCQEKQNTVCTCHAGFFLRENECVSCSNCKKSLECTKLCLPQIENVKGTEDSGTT
Experiment: yeast display SC50
parameter_measured: apparent Kd (screen) (pM)

[[record]]
binder = "A36R (designed binder) SMEEEVEKAAKEYEKKKKEAIEKHLEKLKAKDKEARERFLKELEEAAKEYAKDEAKTMSEEEAKRRAKKYKEKVLLSELSEEEQKEIKEAEEKLVRTILKYVEEAAK"
units_text = "pM"
result_number = 718

[[record]]
binder = "K31D (designed binder) SMEEEVEKAAKEYEKKKKEAIEKHLEKLKADDKEAAERFLKELEEAAKEYAKDEAKTMSEEEAKRRAKKYKEKVLLSELSEEEQKEIKEAEEKLVRTILKYVEEAAK"
units_text = "pM"
result_number = 956

[[record]]
binder = "R96Q (designed binder) SMEEEVEKAAKEYEKKKKEAIEKHLEKLKAKDKEAAERFLKELEEAAKEYAKDEAKTMSEEEAKRRAKKYKEKVLLSELSEEEQKEIKEAEEKLVQTILKYVEEAAK"
units_text = "pM"
result_number = 1400

[[record]]
binder = "A51H (designed binder) SMEEEVEKAAKEYEKKKKEAIEKHLEKLKAKDKEAAERFLKELEEAAKEYHKDEAKTMSEEEAKRRAKKYKEKVLLSELSEEEQKEIKEAEEKLVRTILKYVEEAAK"
units_text = "pM"
result_number = 490

